Entries below carry reported GI50 on NCI-H522 (Homo sapiens).
quantity: GI50 (µM)

- O=S(=O)(/C=C/c1ccc(C(F)(F)F)cc1F)Cc1ccc(Nc2ncnc3ccc(Br)cc23)cc1: 40
- COc1cc2ncnc(Nc3ccc(CS(=O)(=O)/C=C/c4ccc(Cl)cc4Cl)cc3)c2cc1OC: 6
- O=S(=O)(/C=C/c1ccc(O)cc1)Cc1ccc(Nc2ncnc3ccc(Br)cc23)cc1: 27
- O=S(=O)(/C=C/c1ccc(Br)cc1)Cc1ccc(Nc2ncnc3ccc(Br)cc23)cc1: 20

A. O=S(=O)(/C=C/c1ccc(F)cc1Cl)Cc1ccc(Nc2ncnc3ccccc23)cc1
B. O=S(=O)(/C=C/c1ccc(Cl)cc1)Cc1ccc(Nc2ncnc3ccc(Br)cc23)cc1
C. COc1cc2ncnc(Nc3ccc(CS(=O)(=O)/C=C/c4ccc(Br)cc4)cc3)c2cc1OC
Ask | Order field: GI50 | Direction: descending (largest first) Please express your ranking as an ordered list of the labels.
Reply | A, B, C
(A: 100 µM, B: 13 µM, C: 8 µM)

###

Tested on: SK-OV-3
measurementNotes: Concentration required to inhibit growth of human ovarian (SK-OV3) cell line
Type: functional
quantity: GI50 (µM)

Use the examples below as a reference point.
- O=S(=O)(/C=C/c1ccc(Cl)cc1Cl)Cc1ccc(Nc2ncnc3ccc(Br)cc23)cc1: 1
- O=S(=O)(/C=C/c1ccc(C(F)(F)F)cc1F)Cc1ccc(Nc2ncnc3ccc(Br)cc23)cc1: 5
- O=S(=O)(/C=C/c1ccc(Cl)cc1)Cc1ccc(Nc2ncnc3ccccc23)cc1: 54
- O=S(=O)(/C=C/c1ccc(F)cc1Cl)Cc1ccc(Nc2ncnc3ccccc23)cc1: 44

P. O=S(=O)(/C=C/c1ccc(O)cc1)Cc1ccc(Nc2ncnc3ccccc23)cc1
Q. COc1cc2ncnc(Nc3ccc(CS(=O)(=O)/C=C/c4ccc(F)cc4)cc3)c2cc1OCCN1CCOCC1
Ask | Hi! Which is lower in terms of GI50, the first one P or the second one Q ? Let me know the label of the one you choose.
Reply | P

###

System: PC-3
measurementNotes: Concentration required to inhibit growth of human prostate (PC3) cell line
Format: functional
quantity: GI50 (µM)

Use the examples below as a reference point.
• O=S(=O)(/C=C/c1ccc(F)cc1F)Cc1ccc(Nc2ncnc3ccc(Br)cc23)cc1 = 100
• COc1cc2ncnc(Nc3ccc(CS(=O)(=O)/C=C/c4ccc(F)cc4)cc3)c2cc1OCCN1CCOCC1 = 100
• O=S(=O)(/C=C/c1ccc(Br)cc1)Cc1ccc(Nc2ncnc3ccccc23)cc1 = 42

1. O=S(=O)(/C=C/c1ccc(F)cc1Cl)Cc1ccc(Nc2ncnc3ccccc23)cc1
2. O=S(=O)(/C=C/c1ccc(Br)cc1)Cc1ccc(Nc2ncnc3ccc(Br)cc23)cc1
Ask | Which entry has a larger number for GI50, 1 or 2 ? Let me know the label of the one you choose.
Reply | 1
(1: 100 µM, 2: 34 µM)

###

System: SK-OV-3
measurementNotes: Concentration required to inhibit growth of human ovarian (SK-OV3) cell line
Format: functional
quantity: GI50 (µM)

Use the examples below as a reference point.
• COc1cc2ncnc(Nc3ccc(CS(=O)(=O)/C=C/c4ccc(Cl)cc4Cl)cc3)c2cc1OC = 2
• O=S(=O)(/C=C/c1ccc(Cl)cc1Cl)Cc1ccc(Nc2ncnc3ccccc23)cc1 = 2

I. O=S(=O)(/C=C/c1ccc(Cl)cc1Cl)Cc1ccc(Nc2ncnc3cc(Cl)ccc23)cc1
II. O=S(=O)(/C=C/c1ccc(F)cc1F)Cc1ccc(Nc2ncnc3ccccc23)cc1
Ask | Which entry has a larger number for GI50, I or II ? Let me know the label of the one you choose.
Reply | II
(II: 69 µM, I: 48 µM)

###

Entries below carry reported GI50 on NCI-H522 (Homo sapiens).
quantity: GI50 (µM)

- O=S(=O)(/C=C/c1ccc(F)cc1F)Cc1ccc(Nc2ncnc3ccc(Br)cc23)cc1: 100
- O=S(=O)(/C=C/c1ccc(Cl)cc1Cl)Cc1ccc(Nc2ncnc3cc(Cl)ccc23)cc1: 76
- O=S(=O)(/C=C/c1ccc(Cl)cc1Cl)Cc1ccc(Nc2ncnc3ccc(Br)cc23)cc1: 8
- O=S(=O)(/C=C/c1ccc(F)cc1)Cc1ccc(Nc2ncnc3ccccc23)cc1: 13
- O=S(=O)(/C=C/c1ccc(O)cc1)Cc1ccc(Nc2ncnc3ccccc23)cc1: 100

###

Reported GI50 values for the following compounds.
Test system: PC-3
measurementNotes: Concentration required to inhibit growth of human prostate (PC3) cell line
Type: functional
Please respond with the number in µM and leave the unit unwritten.

* O=S(=O)(/C=C/c1ccc(Cl)cc1Cl)Cc1ccc(Nc2ncnc3ccc(Br)cc23)cc1 | 4

Read the next record carefully.
Ask | Form field: GI50 recorded for `O=S(=O)(/C=C/c1ccc(Cl)cc1Cl)Cc1ccc(Nc2ncnc3ccccc23)cc1` with PC-3 (enter value)
Reply | 19

###

Test system: PC-3
measurementNotes: Concentration required to inhibit growth of human prostate (PC3) cell line
Assay type: functional
quantity: GI50

• O=S(=O)(/C=C/c1ccc(F)cc1F)Cc1ccc(Nc2ncnc3cc(Cl)ccc23)cc1 = > 100 µM
• O=S(=O)(/C=C/c1ccccc1)Cc1ccc(Nc2ncnc3ccccc23)cc1 = > 100 µM

Ask | For the compound `COc1cc2ncnc(Nc3ccc(CS(=O)(=O)/C=C/c4ccc(F)cc4)cc3)c2cc1OC` , what GI50 is on record?
Reply | > 100 µM
